Recorded percent of control (POC) of FACS Geo Mean, one value per entry.
Biological target: T1, hOrai1-mOrai1 ECL2 (AANVST) protein (human/mouse chimera, UniProt Q96D31 1-301)
T1 construct: also called Ch
T1 sequence (Q96D31 other isoform, or with tags, fused parts or gaps): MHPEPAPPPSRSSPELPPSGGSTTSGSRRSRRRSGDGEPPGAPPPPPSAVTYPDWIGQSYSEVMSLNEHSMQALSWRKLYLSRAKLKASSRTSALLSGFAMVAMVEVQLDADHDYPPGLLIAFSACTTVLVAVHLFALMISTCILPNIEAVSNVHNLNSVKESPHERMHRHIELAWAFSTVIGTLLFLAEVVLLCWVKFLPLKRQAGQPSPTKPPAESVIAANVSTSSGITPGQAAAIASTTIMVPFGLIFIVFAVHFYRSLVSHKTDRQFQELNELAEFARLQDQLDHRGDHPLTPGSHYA
Test: FACS, 293EBNA
Parameters: concentration or dose not given beside the values
Excerpt: FIG. 17A-D illustrates the results of FACS analysis showing binding to the indicated mOrai1-hOrai1 ECL2 chimeric mutants expressed on the surface of HEK-293-EBNA cells. Transfected cells were stained first with recombinant monoclonal antibodies then counter-stained with a secondary phycoerythrin-labeled goat (“Gt”) anti-human (“Hu”) IgG F(ab′)₂ antibody fragment and visualized using FACS. […]

These solved cases illustrate the format of a correct answer.
binder	reported
mAb 5B1.1 (antibody, human IgG2, lambda, V domains shown, fully human IgG2 lambda, Campaign 2; also called mAb 5Bl1.1) VH: QVQLVQSGAEVKKPGASVKVSCKASGYTFTDYYINWVRQAPGQGLEWMGWINPNSGGSSYAQKFQGRVTMTRDTSISTAHMELIRLRSDDTAVYYCARERGGIEDWFDPWGQGTLVTVSS VL: QSVLTQPPSVSGAPGQRVTISCTGSSSNIGAGYDVHWYQQLPGTAPKLLIYGNSNRPSGVPDRFSGSKSGTSASLAITKFQAEDEAVYYCQSYGSGLSGVVFGGGTKLTVLG	< 1%
mAb 5B5.2 (antibody, human IgG2, lambda, V domains shown, fully human IgG2 lambda, Campaign 2; same chains as 5B5.1) VH: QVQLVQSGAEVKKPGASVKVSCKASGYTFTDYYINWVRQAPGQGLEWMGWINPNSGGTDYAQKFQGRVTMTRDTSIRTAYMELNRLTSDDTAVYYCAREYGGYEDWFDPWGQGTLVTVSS VL: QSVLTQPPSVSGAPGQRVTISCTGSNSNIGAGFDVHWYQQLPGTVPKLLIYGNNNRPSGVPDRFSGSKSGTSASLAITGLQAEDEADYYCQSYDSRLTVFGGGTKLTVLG	< 1%
mAb 5F2.1 (antibody, human IgG2, lambda, V domains shown, fully human IgG2 lambda, Campaign 2) VH: QVQLVQSGAEVKKPGASVKVSCKASGYTFTDYYMNWVRQAPGQGLEWMGWINPNSGGTHYAQKFQGRVTMTRDTSISTAYMELSRLRSDDTAVYYCAREYGGYSDWFDPWGQGTLVTVSS VL: QSVLTQPPSVSGAPGQRVTISCTGSRSNIGAGYDVHWYQQLPRTAPKLLIYDNSNRPSGVPDRFSGSKSGSSASLAITGLQAEDEADYYCQSYDNSLSDSVLIGGGTKLTVLG	< 1%
mAb 5A4.2 (antibody, human IgG2, lambda, V domains shown, fully human IgG2 lambda, Campaign 2) VH: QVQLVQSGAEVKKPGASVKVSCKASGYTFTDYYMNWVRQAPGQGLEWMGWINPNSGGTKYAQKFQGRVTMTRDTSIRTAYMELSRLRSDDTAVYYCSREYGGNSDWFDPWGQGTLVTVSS VL: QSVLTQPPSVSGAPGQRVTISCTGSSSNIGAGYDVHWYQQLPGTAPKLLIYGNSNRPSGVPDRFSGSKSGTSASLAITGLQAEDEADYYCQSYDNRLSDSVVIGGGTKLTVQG	< 1%
mAb 5C1.1 (antibody, human IgG2, lambda, V domains shown, fully human IgG2 lambda, Campaign 2) VH: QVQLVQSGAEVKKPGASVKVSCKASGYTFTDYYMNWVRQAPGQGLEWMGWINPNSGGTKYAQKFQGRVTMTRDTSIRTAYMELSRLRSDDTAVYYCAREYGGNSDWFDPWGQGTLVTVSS VL: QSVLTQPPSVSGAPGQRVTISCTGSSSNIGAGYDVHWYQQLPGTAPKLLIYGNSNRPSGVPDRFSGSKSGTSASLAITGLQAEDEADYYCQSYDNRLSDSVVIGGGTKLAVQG	< 1%

Now for another entry.
Ask | What value of measured percent of control (POC) of FACS Geo Mean is listed for mAb 2D2.1 (antibody, human IgG2, lambda, V domains shown, fully human IgG2 lambda, Campaign 1; also called mAb 2D.1) VH: QVQLQQWGAGLLKPSETLSLTCAVYGGSFSGYYWSWIRQPPGKGLEWIGEIDHSGRINYNPALKSRLTISVDTSKNQFSLKLSSVTAADTAVYYCARAGSGGYEDWFDPWGQGTLVTVSS VL: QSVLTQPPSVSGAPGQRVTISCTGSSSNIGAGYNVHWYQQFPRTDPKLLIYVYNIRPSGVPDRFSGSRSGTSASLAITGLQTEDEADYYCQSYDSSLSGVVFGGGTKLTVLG ?
Reply | < 1%
